The measurements presented in this section are drawn from ChEMBL document CHEMBL2177027.

tested-on: Adenosine receptor A2b (Homo sapiens)
Sequence (P29275 whole entry): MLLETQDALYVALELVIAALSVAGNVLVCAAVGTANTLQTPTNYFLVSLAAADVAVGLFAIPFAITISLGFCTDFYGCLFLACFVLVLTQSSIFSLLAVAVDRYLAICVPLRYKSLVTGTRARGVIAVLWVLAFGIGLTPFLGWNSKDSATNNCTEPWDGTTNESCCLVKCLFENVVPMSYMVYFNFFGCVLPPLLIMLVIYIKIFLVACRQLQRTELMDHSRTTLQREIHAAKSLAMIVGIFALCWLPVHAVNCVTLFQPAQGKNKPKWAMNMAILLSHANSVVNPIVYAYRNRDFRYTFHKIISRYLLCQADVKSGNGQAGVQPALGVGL
test-description: Antagonist activity at human adenosine A2B receptor expressed in CHO cells assessed as NECA-induced adenylate cyclase activity
attribute-measured: Ki (µM)

Solved entries:
Cn1cc2c(nc(NCc3ccc(F)cc3)n3nc(-c4ccco4)nc23)n1    3.18
Cn1cc2c(nc(NC3CCCCCC3)n3nc(-c4ccco4)nc23)n1    6.59
Cn1cc2c(nc(NC3CCCCC3)n3nc(-c4ccco4)nc23)n1    6.32
CC[C@H](C)Nc1nc2nn(C)cc2c2nc(-c3ccco3)nn12    2.6
Cn1cc2c(nc(NC3CC3)n3nc(-c4ccco4)nc23)n1    1.75

[I] CCC(C)Nc1nc2nn(C)cc2c2nc(-c3ccco3)nn12 (racemic)
[II] CONc1nc2nn(C)cc2c2nc(-c3ccco3)nn12
[III] CNc1nc2nn(C)cc2c2nc(-c3ccco3)nn12
[IV] Cn1cc2c(nc(NC3CCC3)n3nc(-c4ccco4)nc23)n1
[V] C[C@@H](Nc1nc2nn(C)cc2c2nc(-c3ccco3)nn12)c1ccccc1
Rank the 5 compounds: largest Ki first, smallest last. API: response body holds the labels in the requested order.
V, II, I, III, IV
